Assay: Selectivity index, ratio of CC50 for MDBK to IC50 for Trypanosoma congolense IL3000
Format: toxicity, cell-based
Settings: cattle, MDBK cells; read-out: Ratio CC50/IC50
Recorded measurements of selectivity ratio, one per entry
property.measured: selectivity ratio

>>> reported_result("C#CCn1cc(/C=N\\N=C\\C(C)=Cc2ccccc2)c2cc([N+](=O)[O-])ccc21")
0.94
>>> reported_result("C#CCn1cc(/C=N/N=C\\C=C(C)C)c2cc([N+](=O)[O-])ccc21")
2.41

====

Recorded measurements of IC50, one per entry
Test system: Trypanosoma congolense
Test: Trypanocidal activity against Trypanosoma congolense IL3000 incubated for 72 hrs by CellTiter-Glo reagent based […] analysis
Type: functional, organism-based
Conditions: IL3000, 72 h
property.measured: IC50

>>> reported_result("C#CCn1cc(/C=N\\N)c2cc([N+](=O)[O-])ccc21")
"> 3.2 µM"
>>> reported_result("C#CCn1ccc2cc([N+](=O)[O-])ccc21")
"> 125 µM"
>>> reported_result("N=C(N)c1ccc(/N=N/Nc2ccc(C(=N)N)cc2)cc1 [DIMINAZENE DIACETURATE]")
"0.109 µM"
>>> reported_result("C#CCn1cc(/C=N\\N=C\\c2ccc([N+](=O)[O-])o2)c2cc([N+](=O)[O-])ccc21")
"0.08 µM"
>>> reported_result("C#CCn1cc(/C=N\\N=C/C2CC2)c2cc([N+](=O)[O-])ccc21")
"> 84.9 µM"
>>> reported_result("C#CCn1cc(/C=N/N=C\\C=C(C)C)c2cc([N+](=O)[O-])ccc21")
"28.3 µM"
>>> reported_result("C#CCn1cc(\\C=N/N=C/C(C)=C\\C)c2cc([N+](=O)[O-])ccc21")
"> 81.2 µM"
>>> reported_result("C#CCn1cc(/C=N\\N=C\\C2CCCCC2)c2cc([N+](=O)[O-])ccc21")
"> 74.3 µM"
>>> reported_result("C#CCn1cc(/C=N\\N=C\\c2ccncc2)c2cc([N+](=O)[O-])ccc21")
"> 75.5 µM"
>>> reported_result("C#CCn1cc(/C=N\\N=C\\c2ccco2)c2cc([N+](=O)[O-])ccc21")
"> 78 µM"
>>> reported_result("C#CCn1cc(/C=N\\N=C/C)c2cc([N+](=O)[O-])ccc21")
"> 93.2 µM"

Sourced from ChEMBL document CHEMBL6083269
